Ki, Serine/threonine-protein kinase pim-2 (Homo sapiens, UniProt Q9P1W9), per-entry values.
Please reply with the bare figure in nM and do not write the unit itself.

// query Ki value for entry Nc1cc(-c2ccncc2NC(=O)c2nc(-c3ccccc3F)ccc2N)ccn1
35

Any idea what its Ki is? The compound is Nc1ccc(-c2ccccc2F)nc1C(=O)Nc1cnccc1-c1ccncc1
317

Data request, read-out Ki, for Cc1cc(-c2ccncc2NC(=O)c2nc(-c3ccccc3F)ccc2N)cc(N)n1
4

Fill blank: measured Ki of the compound Nc1nccc(-c2ccncc2NC(=O)c2nc(-c3c(F)cccc3F)ccc2N)n1 is ____.
50

So what's the measured Ki for this one? COc1cc(-c2ccncc2NC(=O)c2nc(-c3c(F)cccc3F)ccc2N)cc(N)n1
4

Which Ki value belongs to Cc1cc(-c2ccncc2NC(=O)c2nc(-c3nccs3)ccc2N)nc(N)n1 ?
9

###

- MEASUREMENT_PROTOCOL: Lipophilicity, logD of the compound
- Assay type: physicochemical
- TEST_SETTINGS: octanol/water
PARAMETER: logD

Give the measured logD of Nc1cc(-c2ccncc2NC(=O)c2nc(-c3c(F)cccc3F)ccc2N)nc(C(F)(F)F)n1 .
4.3

###

- MEASUREMENT_PROTOCOL: Hepatic extraction ratio in rat liver microsomes at 1 uM incubated for 30 mins by semi-quantitative LC-MS/MS analysis
- Assay type: ADME
- TEST_SETTINGS: read-out: ERH
Would you kindly list hepatic extraction ratio at 0.5 h, 1 µM for each of these compounds?
Answer field: number only, no words.

Fill blank: measured hepatic extraction ratio at 0.5 h, 1 µM of the compound Nc1cc(-c2ccncc2NC(=O)c2nc(-c3c(F)cccc3F)ccc2N)nc(C(F)(F)F)n1 is ____.
0.91

// hepatic extraction ratio at 0.5 h, 1 µM lookup, key: Cc1nc(N)cc(-c2ccncc2NC(=O)c2nc(-c3c(F)cccc3F)ccc2N)n1
0.82

Quick one: hepatic extraction ratio at 0.5 h, 1 µM of Cc1cc(-c2ccncc2NC(=O)c2nc(-c3c(F)cccc3F)ccc2N)cc(N)n1 ?
0.94

I would be grateful if you could share the reported hepatic extraction ratio at 0.5 h, 1 µM for Nc1cc(-c2ccncc2NC(=O)c2nc(-c3nccs3)ccc2N)nc(C(F)(F)F)n1 .
0.89

Look up hepatic extraction ratio at 0.5 h, 1 µM: Cc1cc(-c2ccncc2NC(=O)c2nc(-c3nccs3)ccc2N)nc(N)n1
0.81

So what's the measured hepatic extraction ratio at 0.5 h, 1 µM for this one? Cc1cc(-c2ccncc2NC(=O)c2nc(-c3ccccc3F)ccc2N)cc(N)n1
0.95

Given the entry Cc1cc(-c2ccncc2NC(=O)c2nc(-c3ccccc3F)ccc2N)nc(N)n1 , report its measured hepatic extraction ratio at 0.5 h, 1 µM.
0.8

###

Ki data for Serine/threonine-protein kinase pim-3 (Homo sapiens, UniProt Q86V86) follow.
Please state the figure in nM; there is no need to write the unit.

Value lookup for Ki; key = Nc1nccc(-c2ccncc2NC(=O)c2nc(-c3c(F)cccc3F)ccc2N)n1
5

Which Ki value is on record for Nc1ccc(-c2ccncc2NC(=O)c2nc(-c3ccccc3F)ccc2N)cn1 ?
12

Entry Nc1ccc(-c2c(F)cccc2F)nc1C(=O)Nc1cnccc1-c1cccnc1N has what Ki?
36

Any idea what Ki was measured for Nc1cc(-c2ccncc2NC(=O)c2nc(-c3ccccc3F)ccc2N)nc(N)n1 ?
15

###

Provide the reported Ki of each item.

Please provide the recorded Ki for Nc1cc(-c2ccncc2NC(=O)c2nc(-c3ccccc3F)ccc2N)nc(N)n1 , tested on Serine/threonine-protein kinase pim-1 (Homo sapiens, UniProt P11309).
Sequence (P11309 whole entry): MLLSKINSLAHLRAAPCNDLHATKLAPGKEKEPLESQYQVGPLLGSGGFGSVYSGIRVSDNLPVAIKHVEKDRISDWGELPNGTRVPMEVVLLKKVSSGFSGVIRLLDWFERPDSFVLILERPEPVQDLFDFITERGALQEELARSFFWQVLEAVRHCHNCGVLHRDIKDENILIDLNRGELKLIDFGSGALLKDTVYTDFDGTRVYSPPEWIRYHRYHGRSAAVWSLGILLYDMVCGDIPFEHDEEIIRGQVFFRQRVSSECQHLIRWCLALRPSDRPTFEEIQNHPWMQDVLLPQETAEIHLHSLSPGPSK
17 nM

GET /values?readout=Ki&system=Serine/threonine-protein kinase pim-1 (Homo sapiens, UniProt P11309)&item= Nc1ccc(-c2c(F)cccc2F)nc1C(=O)Nc1cnccc1-c1cccnc1N
28 nM

Quick check: Ki on Serine/threonine-protein kinase pim-1 (Homo sapiens, UniProt P11309), item COc1cc(-c2ccncc2NC(=O)c2nc(-c3c(F)cccc3F)ccc2N)cc(N)n1 ?
< 1 nM

Under Serine/threonine-protein kinase pim-1 (Homo sapiens, UniProt P11309): Ki value of Cc1cc(-c2ccncc2NC(=O)c2nc(-c3ccccc3F)ccc2N)cc(N)n1 ?
< 1 nM

Request body: readout Ki, system Serine/threonine-protein kinase pim-1 (Homo sapiens, UniProt P11309), query Nc1cc(-c2ccncc2NC(=O)c2nc(-c3ccccc3F)ccc2N)ccn1 . Return the value.
< 1 nM

Lab note: need Ki with Serine/threonine-protein kinase pim-1 (Homo sapiens, UniProt P11309) for entry Cc1nc(N)cc(-c2ccncc2NC(=O)c2nc(-c3c(F)cccc3F)ccc2N)n1 , please look it up.
< 1 nM

Record Cc1cc(-c2ccncc2NC(=O)c2nc(-c3c(F)cccc3F)ccc2N)cc(N)n1 : what is its Ki with Serine/threonine-protein kinase pim-1 (Homo sapiens, UniProt P11309)?
< 1 nM

###

- MEASUREMENT_PROTOCOL: Hepatic extraction ratio in human liver microsomes at 1 uM incubated for 30 mins by semi-quantitative LC-MS/MS analysis
- Type: ADME
- TEST_SETTINGS: read-out: ERH
Threshold 0.8: hepatic extraction ratio at 0.5 h, 1 µM strictly smaller gives 1, otherwise -1.

Hello, is hepatic extraction ratio at 0.5 h, 1 µM of the following molecule strictly smaller than 0.8? Nc1cc(-c2ccncc2NC(=O)c2nc(-c3nccs3)ccc2N)nc(C(F)(F)F)n1
-1

Hello, I'm reviewing records and need to know if hepatic extraction ratio at 0.5 h, 1 µM of Nc1cc(-c2ccncc2NC(=O)c2nc(-c3c(F)cccc3F)ccc2N)nc(C(F)(F)F)n1 is below 0.8. Could you check?
1

# check: hepatic extraction ratio at 0.5 h, 1 µM < 0.8 for Cc1cc(-c2ccncc2NC(=O)c2nc(-c3nccs3)ccc2N)nc(N)n1
1

Decide: hepatic extraction ratio at 0.5 h, 1 µM of Cc1cc(-c2ccncc2NC(=O)c2nc(-c3c(F)cccc3F)ccc2N)cc(N)n1 strictly below 0.8?
-1

Please indicate whether the reported hepatic extraction ratio at 0.5 h, 1 µM of Cc1cc(-c2ccncc2NC(=O)c2nc(-c3ccccc3F)ccc2N)cc(N)n1 is strictly below 0.8.
-1

State whether 0.8 exceeds hepatic extraction ratio at 0.5 h, 1 µM recorded for Cc1cc(-c2ccncc2NC(=O)c2nc(-c3ccccc3F)ccc2N)nc(N)n1 .
1
